Reported log10(dpm) values for a set of molecules
Test: Stability of chelates in rat serum (CM-Sephadex assay, serum binding)
Settings: 24 hours in rat serum at room temperature; Fraction 1: 0.2 ml sample then 2 ml 0.01M Tris pH 7.5 (eluate)
MEASUREMENT_NAME: log10(dpm) (log10 of the value in dpm)

INSERT INTO measurements (molecule, value) VALUES
  ('O=C([O-])CN(CCN(CC(=O)[O-])CC(=O)[O-])CCN(CC(=O)[O-])CC(=O)[O-].[Eu+3]', 3.68),
  ('[Cl][Sm]([Cl])[Cl] [Samarium chloride, reference compound]', 5.02),
  ('[Cl][Eu]([Cl])[Cl] [Europium chloride, reference compound]', 3.38),
  ('[Cl][La]([Cl])[Cl] [Lanthanum chloride, reference compound]', 4.71),
  ('O=C([O-])CN(CCN(CC(=O)[O-])CC(=O)[O-])CCN(CC(=O)[O-])CC(=O)[O-].[La+3]', 4.92);

====

Reported % of total values for a set of compounds
Assay: Assay of chelate on carboxymethyl (CM) Sephadex column (chelate formation, charge)
Format: physicochemical
Conditions: Fraction 4: column and contents (retained)
MEASUREMENT_NAME: % of total

INSERT INTO assay_data (compound, measurement_name, value) VALUES
  ('[Cl][Eu]([Cl])[Cl] [Europium chloride, reference compound]', '% of total', '100 % of total'),
  ('[Cl][Sm]([Cl])[Cl] [Samarium chloride, reference compound]', '% of total', '100 % of total'),
  ('O=C([O-])CN(CCN(CC(=O)[O-])CC(=O)[O-])CCN(CC(=O)[O-])CC(=O)[O-].[Sm+3]', '% of total', '2 % of total'),
  ('O=C([O-])CN(CCN(CC(=O)[O-])CC(=O)[O-])CCN(CC(=O)[O-])CC(=O)[O-].[La+3]', '% of total', '0 % of total'),
  ('[Cl][La]([Cl])[Cl] [Lanthanum chloride, reference compound]', '% of total', '100 % of total'),
  ('O=C([O-])CN(CCN(CC(=O)[O-])CC(=O)[O-])CCN(CC(=O)[O-])CC(=O)[O-].[Eu+3]', '% of total', '0 % of total');

====

Experiment: Stability of chelates in rat serum (CM-Sephadex assay, serum binding)
Conditions: 24 hours in rat serum at room temperature; Fraction 1: 0.2 ml sample then 2 ml 0.01M Tris pH 7.5 (eluate)
Reported % of total values for a set of molecules
MEASUREMENT_NAME: % of total

INSERT INTO assay_data (molecule, value) VALUES
  ('O=C([O-])CN(CCN(CC(=O)[O-])CC(=O)[O-])CCN(CC(=O)[O-])CC(=O)[O-].[La+3]', '93 % of total'),
  ('[Cl][Eu]([Cl])[Cl] [Europium chloride, reference compound]', '42 % of total'),
  ('[Cl][Sm]([Cl])[Cl] [Samarium chloride, reference compound]', '48 % of total'),
  ('O=C([O-])CN(CCN(CC(=O)[O-])CC(=O)[O-])CCN(CC(=O)[O-])CC(=O)[O-].[Eu+3]', '91 % of total'),
  ('[Cl][La]([Cl])[Cl] [Lanthanum chloride, reference compound]', '49 % of total');

====

Reported % of total values for a set of compounds
Assay: Stability of chelates to autoclaving (CM-Sephadex assay)
Format: physicochemical
Settings: autoclaved 30 minutes at 121° C.; Fraction 3: column and contents (retained)
MEASUREMENT_NAME: % of total

INSERT INTO results (compound, value) VALUES
  ('O=C([O-])CN(CCN(CC(=O)[O-])CC(=O)[O-])CCN(CC(=O)[O-])CC(=O)[O-].[Eu+3]', '0 % of total'),
  ('O=C([O-])CN1CCN(CC(=O)[O-])CCN(CC(=O)[O-])CCN(CC(=O)[O-])CC1.[Eu+3]', '0 % of total'),
  ('O=C([O-])CN1CCN(CC(=O)[O-])CCN(CC(=O)[O-])CCN(CC(=O)[O-])CC1.[La+3]', '0 % of total'),
  ('O=C([O-])CN1CCN(CC(=O)[O-])CCN(CC(=O)[O-])CCN(CC(=O)[O-])CC1.[Sm+3]', '0 % of total'),
  ('O=C([O-])CN(CCN(CC(=O)[O-])CC(=O)[O-])CCN(CC(=O)[O-])CC(=O)[O-].[La+3]', '0 % of total'),
  ('O=C([O-])CN(CCN(CC(=O)[O-])CC(=O)[O-])CCN(CC(=O)[O-])CC(=O)[O-].[Sm+3]', '0 % of total');

====

Experiment: Assay of chelate on carboxymethyl (CM) Sephadex column (chelate formation, charge)
Type: physicochemical
Settings: DOTA chelates; Fraction 1: 1 ml sample diluted 1:10 then 3 ml 0.01M Tris pH 7.5 (eluate)
Reported % of total values for a set of molecules
MEASUREMENT_NAME: % of total

INSERT INTO results (molecule, measurement_name, value) VALUES
  ('O=C([O-])CN1CCN(CC(=O)[O-])CCN(CC(=O)[O-])CCN(CC(=O)[O-])CC1.[Sm+3]', '% of total', '98 % of total'),
  ('O=C([O-])CN1CCN(CC(=O)[O-])CCN(CC(=O)[O-])CCN(CC(=O)[O-])CC1.[La+3]', '% of total', '97 % of total'),
  ('O=C([O-])CN1CCN(CC(=O)[O-])CCN(CC(=O)O)CCN(CC(=O)[O-])CC1.[Gd+3] [Gd-DOTA, reference compound]', '% of total', '100 % of total'),
  ('O=C([O-])CN1CCN(CC(=O)[O-])CCN(CC(=O)[O-])CCN(CC(=O)[O-])CC1.[Eu+3]', '% of total', '100 % of total');

====

Assay: Stability of chelates to autoclaving (CM-Sephadex assay)
Format: physicochemical
Settings: autoclaved 30 minutes at 121° C.; Fraction 1: sample diluted 1:10 then 2-3 ml 0.01M Tris pH 7.5 (eluate)
MEASUREMENT_NAME: dpm

INSERT INTO results (compound, measurement_name, value) VALUES
  ('O=C([O-])CN1CCN(CC(=O)[O-])CCN(CC(=O)[O-])CCN(CC(=O)[O-])CC1.[Eu+3]', 'dpm', '366651 dpm'),
  ('O=C([O-])CN(CCN(CC(=O)[O-])CC(=O)[O-])CCN(CC(=O)[O-])CC(=O)[O-].[La+3]', 'dpm', '411400 dpm'),
  ('O=C([O-])CN1CCN(CC(=O)[O-])CCN(CC(=O)[O-])CCN(CC(=O)[O-])CC1.[Sm+3]', 'dpm', '1439622 dpm'),
  ('O=C([O-])CN(CCN(CC(=O)[O-])CC(=O)[O-])CCN(CC(=O)[O-])CC(=O)[O-].[Eu+3]', 'dpm', '380954 dpm'),
  ('O=C([O-])CN1CCN(CC(=O)[O-])CCN(CC(=O)[O-])CCN(CC(=O)[O-])CC1.[La+3]', 'dpm', '400045 dpm'),
  ('O=C([O-])CN(CCN(CC(=O)[O-])CC(=O)[O-])CCN(CC(=O)[O-])CC(=O)[O-].[Sm+3]', 'dpm', '1128928 dpm');

====

Assay: Assay of chelate on carboxymethyl (CM) Sephadex column (chelate formation, charge)
Type: physicochemical
Settings: Fraction 2: 1 ml sample then 3 ml 0.01M Tris pH 7.5 (eluate)
Reported % of total values for a set of compounds
MEASUREMENT_NAME: % of total

INSERT INTO measurements (compound, measurement_name, value) VALUES
  ('O=C([O-])CN(CCN(CC(=O)[O-])CC(=O)[O-])CCN(CC(=O)[O-])CC(=O)[O-].[La+3] [La-DTPA]', '% of total', '100 % of total'),
  ('[Cl][La]([Cl])[Cl] [Lanthanum chloride, reference compound]', '% of total', '0 % of total'),
  ('O=C([O-])CN(CCN(CC(=O)[O-])CC(=O)[O-])CCN(CC(=O)[O-])CC(=O)[O-].[Sm+3] [Sm-DTPA]', '% of total', '97 % of total'),
  ('[Cl][Eu]([Cl])[Cl] [Europium chloride, reference compound]', '% of total', '0 % of total'),
  ('[Cl][Sm]([Cl])[Cl] [Samarium chloride, reference compound]', '% of total', '0 % of total'),
  ('O=C([O-])CN(CCN(CC(=O)[O-])CC(=O)[O-])CCN(CC(=O)[O-])CC(=O)[O-].[Eu+3] [Eu-DTPA]', '% of total', '100 % of total'),
  ('[Cl][Gd]([Cl])[Cl] [Gadolinium chloride, reference compound]', '% of total', '0 % of total'),
  ('O=C([O-])CN(CCN(CC(=O)[O-])CC(=O)O)CCN(CC(=O)[O-])CC(=O)O.[Gd+3] [Gd-DTPA, Gd-diethylenetriaminepentaacetic acid]', '% of total', '100 % of total');
